IC50 listing for selected compounds.
TESTED_ON: Phospholipase A2, pancreatic group IB (Sus scrofa)
ASSAY_PROCEDURE: Inhibitory activity against porcine pancreatic Phospholipase A2

chemical_structure=Cc1c(CC(N)=O)c2c(OCC(=O)O)cccc2n1Cc1cccc(Cl)c1 result="0.02 µM"
chemical_structure=Cc1c(CC(N)=O)c2cc(OCc3ccccc3C(=O)O)ccc2n1Cc1ccccc1 result="7.5 µM"
chemical_structure=Cc1c(CC(N)=O)c2c(OCC(=O)O)cccc2n1Cc1ccccc1-c1ccccc1 result="0.014 µM"

Please look at the following compound next.
Prompt: Which IC50 is reported for this compound? `NC(=O)Cc1c(Br)n(Cc2ccccc2)c2ccc(OCCCP(=O)(O)O)cc12`
Completion: 2.2 µM
